Every entry's value here was drawn from ChEMBL document CHEMBL1135728.

# SYSTEM: UniProt:Q02156
# Sequence (Q02156 whole entry): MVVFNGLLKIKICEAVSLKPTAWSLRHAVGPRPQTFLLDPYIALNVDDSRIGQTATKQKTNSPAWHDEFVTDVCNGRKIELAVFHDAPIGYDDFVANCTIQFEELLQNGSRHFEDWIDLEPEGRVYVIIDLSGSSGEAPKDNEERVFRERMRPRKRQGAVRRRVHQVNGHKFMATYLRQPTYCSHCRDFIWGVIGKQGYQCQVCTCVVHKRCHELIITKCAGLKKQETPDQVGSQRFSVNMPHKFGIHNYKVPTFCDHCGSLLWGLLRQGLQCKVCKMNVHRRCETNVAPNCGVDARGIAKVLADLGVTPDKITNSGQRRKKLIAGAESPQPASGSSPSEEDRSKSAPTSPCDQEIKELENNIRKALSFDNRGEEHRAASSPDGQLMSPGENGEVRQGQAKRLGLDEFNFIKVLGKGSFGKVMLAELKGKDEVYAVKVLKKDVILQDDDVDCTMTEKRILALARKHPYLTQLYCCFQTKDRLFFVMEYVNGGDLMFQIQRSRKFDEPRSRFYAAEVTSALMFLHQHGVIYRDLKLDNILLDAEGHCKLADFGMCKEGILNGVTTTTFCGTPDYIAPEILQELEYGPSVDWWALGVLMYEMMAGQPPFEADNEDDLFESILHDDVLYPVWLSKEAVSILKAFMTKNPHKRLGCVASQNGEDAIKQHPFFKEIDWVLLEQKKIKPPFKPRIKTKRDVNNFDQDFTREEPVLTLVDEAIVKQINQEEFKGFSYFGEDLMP
# PROTOCOL_DETAILS: Inhibition of His-tagged Protein kinase C epsilon over-expressed in COS7 cells
Reported IC50 values follow for various compounds

Known IC50 results, listed for orientation:
O=C(c1cc2ccccc2[nH]1)c1cc2cc(O)ccc2[nH]1    > 30 µM
COCC(=O)Oc1ccc2[nH]c(C(=O)c3cc4ccccc4[nH]3)cc2c1    > 100 µM
CN(C)CC(=O)Oc1ccc2[nH]c(C(=O)c3cc4ccccc4[nH]3)cc2c1    30 µM

Answer with reported IC50 of CC(=O)Oc1ccc2[nH]c(C(=O)c3cc4ccccc4[nH]3)cc2c1
> 100 µM
